# subjectOfTest: T1, human LAIR1 extracellular domain (ECD) protein with 6 HIS tag at the C-terminus (human, UniProt Q6GTX8 22-165)
# T1 construct: Produced recombinantly in HEK293 cells; the whole entry is named here; also called LAIR1 ECD; LAIR1-ECD
# T1 chain: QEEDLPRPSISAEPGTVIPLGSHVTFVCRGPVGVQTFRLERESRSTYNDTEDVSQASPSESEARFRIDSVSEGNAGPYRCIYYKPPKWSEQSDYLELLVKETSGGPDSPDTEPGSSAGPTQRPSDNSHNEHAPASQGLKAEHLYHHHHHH
# experimentNotes: ELISA, LAIR1 ECD coated, mAb titrated, anti-rabbit HRP

- binder: "LA-258-3 (antibody, V domains shown, Rabbit monoclonal IgG) VH: QSVKESGGDLVKPEGSLTLTCKASGFSFSNSYYMCWVRQAPGKGLEWIACIYTGSTSGTYYASWVNGRFTISKTPSTTVTLQMTSLTVADTATYFCSRKLTNFNGAYLDLWGPGTLVTISS VL: ELVLTQTPASVEAAVGGTVTINCQASQSISNLLAWYQQKPGQPPKVLIYKASTLASGVPSRFKGSGSGTDFTLTISDLECADAATYYCQANNGGSDNNFGGGTEVVVKA"
  EC50, nM: 0.3
- binder: "LA-89 (antibody, V domains shown, Rabbit monoclonal IgG; also called mAb LA-89) VH: QSVKESGGRLVTPGTPLTLTCTVSGFSLSSNAISWVRQAPGKGLEWIGYIYGDGRTFYASWAKGRFTISKTSTTVDLKMTSLTSEDTATYFCIKSLHLWGPGTLVTISS VL: ELDMTQTASPVSAAVGGTVTINCQSSQSVYNKNQLFWYQQKPGQPPKLLIYDASTLASGVPSRYKGSGSGTQFTLTISGVQCDDAATYYCLGEYTGNIYTFGEGTEVVVK"
  EC50, nM: 0.08
- binder: "LA-199 (antibody, V domains shown, Rabbit monoclonal IgG) VH: EQSVEESGGRLVTPGTPLTLTCTASGFSLSSYAMIWVRQAPGEGLEWIGDIYAGGGATYYASWAKGRFTISKTSTTVDLKITSPTTEDTATYFCARAYGSGYDLWGPGTLVTVSS VL: ELDLTQTPASVEVAVGGTVTIKCQASQSISSYLSWYQQKPGQPPKLLIYYASTMASGVPSRFSGSGSGTQFTLTISDLECADAATYYCQQGDSRSNVDNIFGGGTEVVVK"
  EC50, nM: 0.16
